Target: Recombinant full length human OGA enzyme (Homo sapiens (Human))
Assay: OGA Enzyme Inhibition Biochemical Assay
Conditions: 1 nM OGA, 100 μM 4-MUGlcNAc, pH 6.4
Kindly state IC50 for each of the entries shown.
Report as a plain number; the unit nM is understood.

What value of IC50 has been recorded for this entry: [2H][C@]1(Oc2cc(OC)ncn2)C[C@H](C)N(Cc2cnc(NC(C)=O)s2)C1 [Example 1-164] 9.7

What value of IC50 has been recorded for this entry: CC(=O)Nc1ncc(CN2C[C@H](Oc3ccc(F)cn3)C[C@H]2C)s1 [Example 1-10] 28

---

Target: Recombinant full length human OGA enzyme (Homo sapiens (Human))
Assay: OGA Enzyme Inhibition Biochemical Assay
Details: 1 nM OGA, 100 μM 4-MUGlcNAc, pH 6.4
result-type: IC50

What value of IC50 has been recorded for this entry: CC(=O)Nc1ncc(CN2C[C@@H](Oc3cc(C)nc(C)c3)C[C@H]2C)s1 [Example 1-63] 420 nM

What value of IC50 has been recorded for this entry: CC(=O)Nc1nc(F)c(CN2C[C@H](Oc3cnc(N4CCOCC4)cn3)C[C@@H]2C)s1 [Example 1-142] < 1 nM

What value of IC50 has been recorded for this entry: [2H]C([2H])([2H])Oc1cc(O[C@@H]2C[C@H](C)N(Cc3sc(NC(C)=O)nc3F)C2)ncn1 (single isomer, unassigned) [Example 1-155] < 1 nM

What value of IC50 has been recorded for this entry: CC(=O)Nc1ncc(CN2C[C@H](Oc3cc(OC4CCC4)ncn3)C[C@@H]2C)s1 [Example 1-121] < 1 nM

What value of IC50 has been recorded for this entry: [2H][C@@]1(Oc2cc(OC)ncn2)C[C@H](C)N(Cc2sc(NC(C)=O)nc2F)C1 (single isomer, unassigned) [Example 1-165] < 1 nM

What value of IC50 has been recorded for this entry: COc1cc(O[C@@H]2CCCN(Cc3sc(NC(C)=O)nc3F)C2)ncn1 [Example 1-33] 17 nM

What value of IC50 has been recorded for this entry: COc1cc(O[C@H]2CCN(Cc3cnc(NC(C)=O)s3)C2)ncn1 [Example 1-36] 1700 nM

---

Assay: Rat Liver Microsome Stability Assay
Format: in vitro ADME
Settings: rat liver microsomes, 1 uM compound
Kindly state RLM % Qh (%) for each of the entries shown.
Form field: result (number plus unit)

What value of RLM % Qh (%) has been recorded for this entry: CC(=O)Nc1ncc(CN2CC[C@H](Oc3cc(C)nc(C)c3)C2)s1 16%

What value of RLM % Qh (%) has been recorded for this entry: CC(=O)Nc1nc(F)c(CN2C[C@H](Oc3cnc(N4CCOCC4)cn3)C[C@@H]2C)s1 59%

What value of RLM % Qh (%) has been recorded for this entry: CC(=O)Nc1nc(F)c(CN2C[C@H](Oc3cc(C)ncc3C)C[C@@H]2C)s1 58%

What value of RLM % Qh (%) has been recorded for this entry: CC(=O)Nc1ncc(CN2C[C@H](Oc3cc(C)nc(C)n3)C[C@@H]2C)s1 48%

What value of RLM % Qh (%) has been recorded for this entry: CC(=O)Nc1ncc(CN2C[C@H](Oc3cc(OCC(F)(F)F)ncn3)C[C@@H]2C)s1 58%

What value of RLM % Qh (%) has been recorded for this entry: COc1nc(C)cc(O[C@@H]2C[C@H](C)N(Cc3cnc(NC(C)=O)s3)C2)n1 58%

What value of RLM % Qh (%) has been recorded for this entry: CC(=O)Nc1ncc(CN2C[C@H](Oc3cc(F)ncn3)C[C@@H]2C)s1 47%

What value of RLM % Qh (%) has been recorded for this entry: CC(=O)Nc1nc(F)c(CN2C[C@H](Oc3cc(N4CCOCC4)ccn3)C[C@@H]2C)s1 75%

---

Target: Recombinant full length human OGA enzyme (Homo sapiens (Human), UniProt O60502)
Sequence (O60502 whole entry): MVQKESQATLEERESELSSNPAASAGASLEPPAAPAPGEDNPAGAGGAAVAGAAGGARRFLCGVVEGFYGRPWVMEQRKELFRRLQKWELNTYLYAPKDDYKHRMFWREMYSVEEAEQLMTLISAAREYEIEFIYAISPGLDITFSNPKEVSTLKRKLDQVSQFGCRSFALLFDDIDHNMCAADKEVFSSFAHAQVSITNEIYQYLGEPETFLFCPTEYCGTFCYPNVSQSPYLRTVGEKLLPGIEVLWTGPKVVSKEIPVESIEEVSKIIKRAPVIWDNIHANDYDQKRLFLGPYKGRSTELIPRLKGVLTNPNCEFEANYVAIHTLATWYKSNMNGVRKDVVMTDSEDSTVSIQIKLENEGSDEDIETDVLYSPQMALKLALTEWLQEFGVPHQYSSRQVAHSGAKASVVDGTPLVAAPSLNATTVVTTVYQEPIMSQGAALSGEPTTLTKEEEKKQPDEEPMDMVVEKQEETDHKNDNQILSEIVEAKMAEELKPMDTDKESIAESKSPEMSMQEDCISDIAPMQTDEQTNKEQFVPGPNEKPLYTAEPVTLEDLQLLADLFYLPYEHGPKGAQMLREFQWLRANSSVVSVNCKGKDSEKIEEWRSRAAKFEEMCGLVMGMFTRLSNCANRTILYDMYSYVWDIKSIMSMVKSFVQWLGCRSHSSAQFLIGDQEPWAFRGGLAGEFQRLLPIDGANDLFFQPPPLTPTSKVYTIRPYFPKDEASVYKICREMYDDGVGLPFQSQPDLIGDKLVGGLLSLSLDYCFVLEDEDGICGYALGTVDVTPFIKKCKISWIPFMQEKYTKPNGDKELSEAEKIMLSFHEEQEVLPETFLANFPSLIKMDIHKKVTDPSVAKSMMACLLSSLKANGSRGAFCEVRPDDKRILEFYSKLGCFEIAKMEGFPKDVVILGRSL
Assay: OGA Enzyme Inhibition Biochemical Assay
Conditions: 1 nM OGA, 100 μM 4-MUGlcNAc, pH 6.4
Kindly state pIC50 for each of the entries shown.
Scale note: pIC50 = -log10(concentration in M).

What value of pIC50 has been recorded for this entry: CC(=O)Nc1ncc(CN2CCC[C@@H](Oc3ccc(F)cn3)C2)s1 [Example 1-3] 6.85

What value of pIC50 has been recorded for this entry: COc1cc(O[C@H]2C[C@@H](C)N(Cc3cnc(NC(C)=O)s3)C2)ncn1 [Example 1-40] 6.14

What value of pIC50 has been recorded for this entry: CC(=O)Nc1ncc(CN2C[C@H](Oc3cc(C(C)=O)ncn3)C[C@@H]2C)s1 [Example 1-76] 8.59

What value of pIC50 has been recorded for this entry: CC(=O)Nc1nc(F)c(CN2C[C@H](Oc3cc(OC4CN(C)C4)ncn3)C[C@@H]2C)s1 [Example 1-141] 9.00

What value of pIC50 has been recorded for this entry: COc1cc(O[C@@H]2C[C@@H](C)N(Cc3cnc(NC(C)=O)s3)C2)ncn1 [Example 1-38] 6.60

---

Molecular target: Recombinant full length human OGA enzyme (Homo sapiens (Human))
Test: OGA Enzyme Inhibition Biochemical Assay
Conditions: 1 nM OGA, 100 μM 4-MUGlcNAc, pH 6.4
result-type: IC50 (nM)
Report as a plain number; the unit nM is understood.

What value of IC50 has been recorded for this entry: COc1cncnc1O[C@@H]1C[C@H](C)N(Cc2cnc(NC(C)=O)s2)C1 6.4

What value of IC50 has been recorded for this entry: CC(=O)Nc1ncc(CN2CC[C@@H](Oc3ccc(F)cn3)C2)s1 80

What value of IC50 has been recorded for this entry: COc1cc(O[C@@H]2CCCN(Cc3cnc(NC(C)=O)s3)C2)ncn1 39

What value of IC50 has been recorded for this entry: CC(=O)Nc1ncc(CN2C[C@H](Oc3ccccn3)C[C@@H]2C)s1 1.3

---

Kindly state pIC50 for each of the entries shown.
Biological target: OGA (S400 O-GLCNAC), HEK-293T cells transfected with Tau-V5 (Homo sapiens (Human))
Sequence (O60502 whole entry): as above
Test: Cellular OGA-Tau MSD Assay
Format: cell-based
Conditions: HEK-293T cells, Tau-S400-GlcNAc MSD readout
Scale note: pIC50 = -log10(concentration in M).

What value of pIC50 has been recorded for this entry: CC(=O)Nc1ncc(CN2C[C@H](Oc3cc(OC4CCCC4)ncn3)C[C@@H]2C)s1 [Example 1-138] 7.55

What value of pIC50 has been recorded for this entry: [2H]c1nc(NC(C)=O)sc1CN1C[C@H](Oc2cc(OC)ncn2)C[C@@H]1C (single isomer, unassigned) [Example 1-162] 7.72

What value of pIC50 has been recorded for this entry: CC(=O)Nc1nc(F)c(CN2C[C@H](Oc3cc(N4CCOCC4)ccn3)C[C@@H]2C)s1 [Example 1-143] 8.40

What value of pIC50 has been recorded for this entry: COc1ncnc(O[C@@H]2C[C@H](C)N(Cc3cnc(NC(C)=O)s3)C2)c1C [Example 1-71] 7.80

What value of pIC50 has been recorded for this entry: CC(=O)Nc1ncc(CN2C[C@H](Oc3cc(NC4CCC4)ncn3)C[C@@H]2C)s1 [Example 1-134] 9.00

What value of pIC50 has been recorded for this entry: COc1nc(C)cc(O[C@@H]2C[C@H](C)N(Cc3cnc(NC(C)=O)s3)C2)n1 [Example 1-75] 8.70

What value of pIC50 has been recorded for this entry: CC(=O)Nc1ncc(CN2CC[C@@H](Oc3ccc(F)cn3)C2)s1 [Example 1-6] 7.43

---

Assay: Rat Liver Microsome Stability Assay
Format: in vitro ADME
Conditions: rat liver microsomes, 1 uM compound
Category scheme (RLM % Qh (%)): LOW: < 40%; MID: ≥ 40% and < 70%; HIGH: ≥ 70%

Which bin, given its RLM % Qh (%), does CC(=O)Nc1ncc(CN2C[C@H](Oc3ccc(C#N)cn3)C[C@@H]2C)s1 [Example 1-16] occupy? MID

Which bin, given its RLM % Qh (%), does COc1cnc(O[C@@H]2C[C@H](C)N(Cc3sc(NC(C)=O)nc3F)C2)nc1 [Example 1-89] occupy? MID

Which bin, given its RLM % Qh (%), does COc1cc(O[C@H]2CC[C@H](C)N(Cc3sc(NC(C)=O)nc3F)C2)ncn1 [Example 1-34] occupy? HIGH

Which bin, given its RLM % Qh (%), does COc1cc(O[C@@H]2CC[C@H](C)N(Cc3sc(NC(C)=O)nc3F)C2)ncn1 [Example 1-35] occupy? HIGH

Which bin, given its RLM % Qh (%), does CC(=O)Nc1ncc(CN2C[C@H](Oc3ccnc(C)c3)C[C@@H]2C)s1 [Example 1-82] occupy? LOW

Which bin, given its RLM % Qh (%), does CC(=O)Nc1ncc(CN2C[C@H](Oc3cc(NC(C)C)ncn3)C[C@@H]2C)s1 [Example 1-136] occupy? LOW

Which bin, given its RLM % Qh (%), does CC(=O)Nc1nc(F)c(CN2C[C@H](Oc3ncc(F)cn3)C[C@@H]2C)s1 [Example 1-112] occupy? MID

Which bin, given its RLM % Qh (%), does CC(=O)Nc1nc(F)c(CN2C[C@H](Oc3ncc(C)nc3C)C[C@@H]2C)s1 [Example 1-106] occupy? HIGH

Which bin, given its RLM % Qh (%), does CC(=O)Nc1ncc(CN2CCC[C@@H](Oc3ccc(F)cn3)C2)s1 [Example 1-3] occupy? HIGH

Which bin, given its RLM % Qh (%), does [2H]c1nc(NC(C)=O)sc1CN1C[C@H](Oc2cc(OC)ncn2)C[C@@H]1C (single isomer, unassigned) [Example 1-162] occupy? LOW

Which bin, given its RLM % Qh (%), does COc1cc(O[C@H]2CCCN(Cc3cnc(NC(C)=O)s3)C2)ncn1 [Example 1-41] occupy? HIGH

Which bin, given its RLM % Qh (%), does CC(=O)Nc1ncc(CN2C[C@H](Oc3cc(N4CCOCC4)ncn3)C[C@@H]2C)s1 [Example 1-130] occupy? LOW

Which bin, given its RLM % Qh (%), does CC(=O)Nc1ncc(CN2C[C@@H](Oc3ccc(F)cn3)C[C@@H]2C)s1 [Example 1-9] occupy? HIGH

Which bin, given its RLM % Qh (%), does COc1ccc(O[C@@H]2C[C@H](C)N(Cc3sc(NC(C)=O)nc3F)C2)nc1 [Example 1-98] occupy? HIGH

Which bin, given its RLM % Qh (%), does COc1cc(O[C@@H]2CCCN(Cc3cnc(NC(C)=O)s3)C2)ncn1 [Example 1-42] occupy? MID

Which bin, given its RLM % Qh (%), does CC(=O)Nc1nc(F)c(CN2C[C@H](Oc3cncnc3)C[C@@H]2C)s1 [Example 1-119] occupy? MID

Which bin, given its RLM % Qh (%), does CC(=O)Nc1ncc(CN2C[C@H](Oc3ncc(OC(F)F)cn3)C[C@@H]2C)s1 [Example 1-80] occupy? MID

Which bin, given its RLM % Qh (%), does CC(=O)Nc1nc(F)c(CN2C[C@H](Oc3ccc(Cl)cn3)C[C@@H]2C)s1 [Example 1-90] occupy? HIGH

Which bin, given its RLM % Qh (%), does [2H]C([2H])([2H])Oc1cc(O[C@@H]2C[C@H](C)N(Cc3cnc(NC(C)=O)s3)C2)ncn1 (single isomer, unassigned) [Example 1-154] occupy? LOW

Which bin, given its RLM % Qh (%), does [2H]C([2H])(c1cnc(NC(C)=O)s1)N1C[C@H](Oc2cc(OC)ncn2)C[C@@H]1C (single isomer, unassigned) [Example 1-160] occupy? LOW

Which bin, given its RLM % Qh (%), does CC(=O)Nc1ncc(CN2C[C@H](Oc3cc(C(C)=O)ncn3)C[C@@H]2C)s1 [Example 1-76] occupy? MID

Which bin, given its RLM % Qh (%), does COc1cc(O[C@H]2C[C@@H](C)N(Cc3cnc(NC(C)=O)s3)C2)ncn1 [Example 1-40] occupy? LOW

Which bin, given its RLM % Qh (%), does CC(=O)Nc1ncc(CN2C[C@H](Oc3ccc(F)cn3)C[C@@H]2C)s1 [Example 1-11] occupy? HIGH

Which bin, given its RLM % Qh (%), does CC(=O)Nc1ncc(CN2C[C@H](Oc3cc(OC4CN(C)C4)ncn3)C[C@@H]2C)s1 [Example 1-125] occupy? MID

Which bin, given its RLM % Qh (%), does CC(=O)Nc1nc(F)c(CN2C[C@@H](Oc3cc(C)nc(C)c3)C[C@@H]2C)s1 [Example 1-52] occupy? HIGH

Which bin, given its RLM % Qh (%), does CC(=O)Nc1nc(F)c(CN2CC[C@@H](Oc3cc(C)nc(C)c3)C2)s1 [Example 1-49] occupy? LOW

Which bin, given its RLM % Qh (%), does CC(=O)Nc1nc(F)c(CN2C[C@H](Oc3cc(O)ncn3)C[C@@H]2C)s1 [Example 1-109] occupy? LOW

Which bin, given its RLM % Qh (%), does CC(=O)Nc1nc(F)c(CN2C[C@H](Oc3cnc(C)cn3)C[C@@H]2C)s1 [Example 1-108] occupy? HIGH

Which bin, given its RLM % Qh (%), does CC(=O)Nc1ncc(CN2C[C@H](Oc3ncc(C)nc3C)C[C@@H]2C)s1 [Example 1-81] occupy? HIGH
